clearance values by entry
- Assay overview: Clearance in iv dosed mouse plasma
- Type: ADME, organism-based
Assay readout: clearance

>>> recorded_result("NC(=O)c1cnc(N[C@H]2CCCNC2)c2cc(-c3cccc(F)c3)sc12")
"28 mL/min/kg"
>>> recorded_result("NC(=O)c1cnc(N[C@H]2CCCNC2)c2cc(-c3ccccc3)sc12")
"45 mL/min/kg"
>>> recorded_result("C[C@H]1NCCC[C@@H]1Nc1ncc(C(N)=O)c2sc(-c3ccccc3)cc12")
"29 mL/min/kg"

---

Parameter 'readout' = PF; parameter 'system' = Serine/threonine-protein kinase Chk1 (Homo sapiens) (UniProt O14757).
Sequence (O14757 whole entry): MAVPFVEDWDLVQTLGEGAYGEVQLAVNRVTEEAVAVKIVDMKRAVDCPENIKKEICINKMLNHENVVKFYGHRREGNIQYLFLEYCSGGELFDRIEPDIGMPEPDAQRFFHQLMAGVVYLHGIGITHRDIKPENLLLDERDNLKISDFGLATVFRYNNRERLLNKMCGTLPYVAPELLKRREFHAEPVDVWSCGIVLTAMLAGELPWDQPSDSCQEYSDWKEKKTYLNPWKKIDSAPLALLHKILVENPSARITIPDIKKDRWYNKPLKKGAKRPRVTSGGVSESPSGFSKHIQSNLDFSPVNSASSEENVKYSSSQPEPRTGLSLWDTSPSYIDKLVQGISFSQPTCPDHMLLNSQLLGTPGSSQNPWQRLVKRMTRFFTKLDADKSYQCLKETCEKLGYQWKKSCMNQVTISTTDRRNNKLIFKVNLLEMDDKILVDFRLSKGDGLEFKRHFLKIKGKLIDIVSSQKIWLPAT
Assay readout: PF

>>> recorded_result("NC(=O)Nc1sc(-c2ccccc2)cc1C(=O)N[C@H]1CCCNC1")
9
>>> recorded_result("NC(=O)c1cnc(N[C@H]2CCCNC2)c2cc(-c3ccccc3)sc12")
5
>>> recorded_result("C[C@H]1NCCC[C@@H]1Nc1ncc(C(N)=O)c2sc(-c3ccccc3)cc12")
5
>>> recorded_result("NC(=O)c1cnc(N[C@H]2CCCNC2)c2cc(-c3cccc(F)c3)sc12")
4
